The reported measurements were obtained from patent US10329302B2.

Target: human IRAK4 FL (Full Length) (Homo sapiens (Human), UniProt Q9NWZ3)
Sequence (Q9NWZ3 whole entry): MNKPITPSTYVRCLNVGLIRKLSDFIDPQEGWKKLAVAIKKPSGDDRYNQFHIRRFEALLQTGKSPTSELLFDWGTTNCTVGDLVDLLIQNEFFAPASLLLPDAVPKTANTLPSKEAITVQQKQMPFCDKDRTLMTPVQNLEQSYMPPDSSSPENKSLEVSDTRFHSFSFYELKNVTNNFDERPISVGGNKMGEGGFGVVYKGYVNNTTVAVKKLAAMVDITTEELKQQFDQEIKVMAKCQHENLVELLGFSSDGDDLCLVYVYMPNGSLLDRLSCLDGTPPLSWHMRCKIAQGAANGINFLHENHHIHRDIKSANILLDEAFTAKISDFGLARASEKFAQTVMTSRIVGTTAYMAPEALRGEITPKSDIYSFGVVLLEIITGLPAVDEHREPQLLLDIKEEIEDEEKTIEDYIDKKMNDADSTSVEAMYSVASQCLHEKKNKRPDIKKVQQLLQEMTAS
Experiment: IRAK4 Enzymatic DELFIA Assay, Protocol A
Format: biochemical
Conditions: human IRAK4 FL, 0.6 mM ATP (KM); read-out: IRAK4 DELFIA Protocol A IC50
Hi! Could you tag entries with IC50 below 1000 nM as Criterion met, and those at or above as Criterion not met? Much appreciated.

Recorded results for 5 molecules are shown here.
1) NC(=O)c1cc2ccnc(OC[C@@H]3CCC(=O)N3)c2cc1OC1CCC1	Criterion not met
2) CC[C@]1(F)C[C@@H](COc2ccnc3cc(C(N)=O)c(OC)cc23)NC1=O	Criterion met
3) COc1cc2c(OC[C@@H]3C[C@H](CC(F)(F)F)C(=O)N3)nccc2cc1C(N)=O	Criterion met
4) COCC1C[C@@H](COc2nccc3cc(C(N)=O)c(OC(C)C)cc23)NC1=O (stereo partly drawn)	Criterion met
5) CC(C)Oc1cc2c(OC[C@@]3(CO)CCC(=O)N3)nccc2cc1C(N)=O	Criterion not met

// query Is it true that IC50 reported for CC(C)Oc1cc2c(OC[C@@H]3C[C@@H](C4(O)COC4)C(=O)N3)nccc2cc1C(N)=O is less than 1000 nM?
// result Criterion met

// query Is it true that IC50 reported for CC(C)Oc1cc2c(OC[C@@H]3CCC(=O)N3C)nccc2cc1C(N)=O is less than 1000 nM?
// result Criterion not met

// query IC50 under 1000 nM? Item: COc1cc2c(OC[C@@H]3C[C@H](CC#N)C(=O)N3)nccc2cc1C(N)=O
// result Criterion not met

// query In plain terms, does COc1cc2c(OC[C@@H]3COC(=O)N3)nccc2cc1C(N)=O come in under 1000 nM for IC50?
// result Criterion met

====

Molecular target: human IRAK4 FL (Full Length) (Homo sapiens (Human), UniProt Q9NWZ3)
Experiment: IRAK4 Enzymatic DELFIA Assay, Protocol A
Assay type: biochemical
Conditions: human IRAK4 FL, 0.6 mM ATP (KM); read-out: IRAK4 DELFIA Protocol A IC50
// reported IC50 per item
Include the unit right after the number.

1. CC[C@@]1(F)C[C@@H](COc2nccc3cc(C(N)=O)c(OC)cc23)NC1=O	2000 nM

// query Query: IC50; subject: COc1cc2c(OC[C@H]3NC(=O)C[C@@H]3CO)nccc2cc1C(N)=O
// result 215 nM

// query Name the recorded IC50 for CC[C@@H]1[C@H](OC)C(=O)N[C@@H]1COc1nccc2cc(C(N)=O)c(OC)cc12 .
// result 1000 nM

// query Reported IC50 for COc1cc2c(OCC3(C)COCC(=O)N3)nccc2cc1C(N)=O (stereo not shown) : what is it?
// result 1540 nM

// query Recorded IC50 of COc1cc2c(OC[C@H]3NC(=O)[C@@H](OC)[C@H]3C)nccc2cc1C(N)=O , please.
// result 2960 nM

// query Entry under review: COc1cc2c(OC[C@@H]3C[C@@H](CC(F)(F)F)C(=O)N3)nccc2cc1C(N)=O . Reported IC50?
// result 15 nM

// query Look up IC50 for this molecule: CC(C)Oc1cc2c(OC[C@@H]3CC(C4(O)CCOCC4)C(=O)N3)nccc2cc1C(N)=O (stereo partly shown)
// result 5.7 nM

====

Below, each of the compounds is paired with its reported pIC50 value.
Biological target: human IRAK4 FL (Full Length) (Homo sapiens (Human), UniProt Q9NWZ3)
Assay: IRAK4 Enzymatic DELFIA Assay, Protocol A
Type: biochemical
Conditions: human IRAK4 FL, 0.6 mM ATP (KM); read-out: IRAK4 DELFIA Protocol A IC50
Would you please state pIC50, meaning minus log10 of the concentration in mol/L, as a bare number?

Worked examples follow.
1) COc1c(C(N)=O)cc2ccnc(OC[C@H]3NC(=O)[C@@H]4[C@@H](C)[C@@H]43)c2c1F	6.73
2) CC(C)Oc1cc2c(OCC3COCC(=O)N3)nccc2cc1C(N)=O (stereo not shown)	6.84
3) CC(C)Oc1cc2c(OC[C@@H]3C[C@@](O)(CC(F)(F)F)C(=O)N3)nccc2cc1C(N)=O	5.98

// query Requested field: pIC50. Item: Cc1cnc(OC[C@@H]2CCC(=O)N2)c2cc(OC(C)C)c(C(N)=O)cc12
// result 7.08

// query Consider the compound shown here: COc1cc2c(OC[C@H]3NC(=O)[C@@H]4[C@@H](F)[C@@H]43)ccnc2cc1C(N)=O What is its recorded pIC50?
// result 9.22

// query What does the record list as pIC50 for NC(=O)c1cc2ccnc(OC[C@@H]3CCC(=O)N3)c2cc1OC1COC1 ?
// result 5.54

====

Biological target: human IRAK4 FL (Full Length) (Homo sapiens (Human), UniProt Q9NWZ3)
Assay: IRAK4 Enzymatic DELFIA Assay, Protocol A
Format: biochemical
Conditions: human IRAK4 FL, 0.6 mM ATP (KM); read-out: IRAK4 DELFIA Protocol A IC50
Doc: threshold 40 nM (exclusive). Items with IC50 beneath it return True; others return False.

Would you please look over these solved cases?
1) CC(C)Oc1cc2c(OC[C@H]3NC(=O)C[C@@H]3N)nccc2cc1C(N)=O	False
2) COc1cc2c(OC[C@H]3NC(=O)[C@H]4[C@@H]3[C@@]4(C)F)nccc2cc1C(N)=O	True
3) CC(C)Oc1c(C(N)=O)cc2ccnc(OC[C@@H]3CCC(=O)N3)c2c1F	False
4) COc1cc2c(OC[C@@H]3C[C@@H](OC)C(=O)N3)cccc2cc1C(N)=O	True
5) CCOc1cc2c(OC[C@H]3NC(=O)[C@@H]4C[C@H]34)ccnc2cc1C(N)=O	False
6) CCOc1cc2c(OC[C@@H]3C[C@](C)(F)C(=O)N3)nccc2cc1C(N)=O	True
7) COc1cc2c(OC[C@H]3NC(=O)[C@@H](F)[C@H]3C)ccnc2cc1C(N)=O	True
8) COc1cc2c(OC[C@@H]3CC(Cc4ccccc4)C(=O)N3)nccc2cc1C(N)=O (some centres unmarked)	False
9) CC(C)Oc1cc2c(OCC3CN(C(=O)CC#N)C3)ccnc2cc1C(N)=O	True
10) CCOc1cc2c(OC[C@H]3NC(=O)[C@@H]4C[C@H]34)nccc2cc1C(N)=O	True

// query Does the reported IC50 of COc1cc2c(OC[C@H]3NC(=O)[C@H]4[C@@H]3C4(C)C)nccc2cc1C(N)=O stay below 40 nM?
// result False

// query Regarding COc1cc2c(OC[C@H]3C[C@@H](F)C(=O)N3)nccc2cc1C(N)=O , kindly confirm whether its IC50 is beneath 40 nM.
// result False

// query Lab note: confirm whether the reported IC50 for this compound is below 40 nM, equality not counting. compound: CC[C@@H]1CC(=O)N[C@@H]1COc1ncc(F)c2cc(C(N)=O)c(OC)cc12
// result True

// query Would you kindly verify if IC50 of NC(=O)c1cc2ccnc(OC[C@@H]3CCC(=O)N3)c2cc1OC(F)F is strictly less than 40 nM?
// result False

// query Lab note: IC50 threshold 40 nM. Does this compound come in strictly under it? Cc1ccnc(-c2cnc(OC[C@@H]3CCC(=O)N3)c3cc(OC(C)C)c(C(N)=O)cc23)n1
// result False

====

Molecular target: human IRAK4 kinase domain (aa 154-460) (Homo sapiens (Human), UniProt Q9NWZ3)
Sequence (Q9NWZ3 154-460): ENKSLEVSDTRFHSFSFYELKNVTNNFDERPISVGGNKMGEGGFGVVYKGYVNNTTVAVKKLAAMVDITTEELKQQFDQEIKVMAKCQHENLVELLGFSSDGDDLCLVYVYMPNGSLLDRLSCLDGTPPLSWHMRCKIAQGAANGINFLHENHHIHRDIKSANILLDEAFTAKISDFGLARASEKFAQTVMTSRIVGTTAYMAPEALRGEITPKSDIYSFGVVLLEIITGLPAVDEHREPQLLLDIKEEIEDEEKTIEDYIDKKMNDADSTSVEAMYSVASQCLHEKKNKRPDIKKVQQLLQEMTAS
Test: IRAK4 Enzymatic DELFIA Assay, Protocol B
Format: biochemical
Details: human IRAK4 kinase domain (aa 154-460), 0.6 mM ATP (KM); read-out: IRAK4 DELFIA Protocol B IC50
Catalogue of IC50 readings, one per entry.
Just the number please, in nM, no unit attached.

Examples from the recorded data:
1. CC(C)Oc1cc2c(OC3CC[C@@H]4CNC[C@H]34)ccnc2cc1C(N)=O (stereo partly drawn)	83
2. CC(C)Oc1cc2c(OCC3(C)CCN(C(=O)CC#N)C3)nccc2cc1C(N)=O (stereo not drawn)	969

Now turn to the next compound.
// query Name the recorded IC50 for CO[C@H]1CN(C(=O)CC#N)C[C@@H]1COc1ccnc2cc(C(N)=O)c(OC(C)C)cc12 .
// result 301

====

Target: human IRAK4 kinase domain (aa 154-460) (Homo sapiens (Human))
Assay: IRAK4 Enzymatic DELFIA Assay, Protocol B
Assay type: biochemical
Details: human IRAK4 kinase domain (aa 154-460), 0.6 mM ATP (KM); read-out: IRAK4 DELFIA Protocol B IC50
READOUT_NAME: pIC50
Scale explanation: pIC50 corresponds to minus log10 of a concentration expressed in moles per litre.

1) CC(C)Oc1cc2c(OCC3(C)CCN(C(=O)CC#N)CC3)ccnc2cc1C(N)=O [Example 91]	6.31

// query Consider the compound CC(C)Oc1cc2c(OC[C@@H]3[C@H]4CN(C(=O)CC#N)C[C@@H]34)ccnc2cc1C(N)=O [Example 87] and give its measured pIC50.
// result 5.58

// query Which pIC50 is listed for CC(C)Oc1cc2c(OC[C@@H]3CCCN3C)nccc2cc1C(N)=O [Example 31] ?
// result 5.58

// query Which pIC50 reading was recorded for the compound CC(C)Oc1cc2c(OC[C@@H]3CCN(C(=O)CC#N)C3)nccc2cc1C(N)=O [Example 70] ?
// result 6.37
